src = patent US9670213B2

Test system: HCC827 (non-small cell lung cancer cells, EGFR del E746-A750)
assay_summary: Cell proliferation and growth inhibition analysis
Format: cell-based
measurement_conditions: Homo sapiens, 72 hours, read-out: Inhibitory activity on cell proliferation (IC50, μM) HCC827
metric_name: IC50 (µM)
Answers are plain numbers, in µM.

> print(dat)
                                   molecule  metric.name  units.symbol  observed.measurement
1  C=CC(=O)Nc1cccc(-n2c(=O)cnc3cnc(Nc4ccc(N5CCCC5)cc4)nc32)c1         IC50            µM                 0.073
2  COc1ccc(Nc2ncc3ncc(=O)n(-c4ccc(NC(=O)/C=C/CN(C)C)cc4)c3n2)cc1         IC50            µM                  0.91
3  C=CC(=O)Nc1cccc(-n2c(=O)cnc3cnc(Nc4ccc(N5CCOCC5)cc4)nc32)c1         IC50            µM                 0.017
4  C=CC(=O)Nc1ccc(-n2c(=O)cnc3cnc(Nc4ccc(N5CCOCC5)cc4)nc32)cc1         IC50            µM                  3.01
5  C=CC(=O)Nc1cccc(Oc2nc(Nc3ccc(N4CCN(C)CC4)cc3OC)ncc2Cl)c1 [WZ4002, reference compound]         IC50            µM                 0.014

Now for the molecule whose IC50 we want.
Sample `COc1ccc(-n2c(=O)cnc3cnc(Nc4cccc(N)c4)nc32)cc1` ; IC50 observed: 15.9
